Consider the following compounds; for each one, report its EC50.
System: HCMV VR977
Assay: CPE inhibition, HCMV VR977 in MRC-5 cells
Format: cell-based, human cytomegalovirus
Conditions: Human betaherpesvirus 5, MRC5, MIC = concentration protecting 50% of cells from CPE
Experimental: The antiviral activity of the test substances on various human pathogenic DNA and RNA viruses was investigated in cell culture test systems. The test substances are diluted in ethanol to a final concentration of 1 mg/ml before the test, and Dulbecco's minimal essential medium (MEM) is used for further dilution steps. […] The cultures are incubated at 37° C. in the presence of 5% CO2. All the investigations are carried out as duplicate determinations; controls are determined only once per plate. […]
The response must be a number in µg/mL with no trailing unit.

*Q* Identify measured EC50 associated with Nc1nc2c(ncn2COCCO)c(=O)[nH]1 [Aciclovir, reference compound]
*A* 1.16

*Q* Identify measured EC50 associated with Nc1nc(O)c2ncn(COC(CO)CO)c2n1 [Ganciclovir, reference compound]
*A* 0.06

*Q* Identify measured EC50 associated with `CC(=O)Nc1ncc2c(nnn2COC(CO)CO)n1`
*A* 7.13

* * *

System: HSV-1 VR733
Assay: CPE inhibition, HSV-1 VR733 in Vero cells
Type: cell-based, type 1 herpes simplex virus
Settings: Human alphaherpesvirus 1, MIC = concentration protecting 50% of cells from CPE
EXPERIMENTAL ENDPOINT: EC50 (µg/mL)
The response must be a number in µg/mL with no trailing unit.

*Q* Identify measured EC50 associated with `Nc1ncc2c(nnn2COC(CO)CO)n1`
*A* 1.28

*Q* Identify measured EC50 associated with Nc1nc(O)c2ncn(COC(CO)CO)c2n1 [Ganciclovir, reference compound]
*A* 0.95

*Q* Identify measured EC50 associated with `CC(=O)OCC(COC(C)=O)OCn1nnc2nc(N)ncc21`
*A* 11.5

*Q* Identify measured EC50 associated with Nc1nc2c(ncn2COCCO)c(=O)[nH]1 [Aciclovir, reference compound]
*A* 0.56

*Q* Identify measured EC50 associated with `CC(=O)Nc1ncc2c(nnn2COC(CO)CO)n1`
*A* 6.58

* * *

Consider the following compounds; for each one, report its EC50.
Tested on: HSV-1 labialis
Experiment: CPE inhibition, HSV-1 labialis in Vero cells
Format: cell-based, type 1 herpes simplex virus
Settings: Human alphaherpesvirus 1, MIC = concentration protecting 50% of cells from CPE

*Q* Identify measured EC50 associated with `Nc1ncc2c(nnn2COC(CO)CO)n1`
*A* 1.1 µg/mL

*Q* Identify measured EC50 associated with Nc1nc2c(ncn2COCCO)c(=O)[nH]1 [Aciclovir, reference compound]
*A* 0.56 µg/mL

*Q* Identify measured EC50 associated with Nc1nc(O)c2ncn(COC(CO)CO)c2n1 [Ganciclovir, reference compound]
*A* ≤ 0.18 µg/mL

*Q* Identify measured EC50 associated with `CC(=O)OCC(COC(C)=O)OCn1nnc2nc(N)ncc21`
*A* 9.88 µg/mL

*Q* Identify measured EC50 associated with `CC(=O)Nc1ncc2c(nnn2COC(CO)CO)n1`
*A* 7.68 µg/mL

* * *

Consider the following molecules; for each one, report its MNTC at 24 h.
Assay: Cytotoxicity by microscopic inspection, MRC-5 cells
Assay type: cell-based
Conditions: human, read-out: MTD (maximum tolerated dose)

*Q* Identify measured MNTC at 24 h associated with Nc1nc(O)c2ncn(COC(CO)CO)c2n1 [Ganciclovir, reference compound]
*A* ≥ 400 µg/mL

*Q* Identify measured MNTC at 24 h associated with `CC(=O)Nc1ncc2c(nnn2COC(CO)CO)n1`
*A* ≥ 311 µg/mL

*Q* Identify measured MNTC at 24 h associated with `Nc1ncc2c(nnn2COC(CO)CO)n1`
*A* ≥ 356 µg/mL

*Q* Identify measured MNTC at 24 h associated with Nc1nc2c(ncn2COCCO)c(=O)[nH]1 [Aciclovir, reference compound]
*A* ≥ 400 µg/mL

*Q* Identify measured MNTC at 24 h associated with `CC(=O)OCC(COC(C)=O)OCn1nnc2nc(N)ncc21`
*A* ≥ 74.1 µg/mL
